Plant response rating, Crabgrass by entry:
test system: crabgrass; assay: Test B preemergence/postemergence greenhouse plant response rating 0 to 10; type: in vivo, Digitaria spp.; conditions: PREEMERGENCE, Rate 50 g/ha; 0 to 10 scale
Lab note: record just the number, no unit beside it.

Take a look at these entries with their results.
Compound: CCS(=O)(=O)Oc1cc(-c2nn3c(c2Cl)CCCC3)c(F)cc1Cl
Plant response rating, Crabgrass: 5
//
Compound: Clc1ccc(-c2nc3n(c2Br)CCCC3)c(Cl)c1
Plant response rating, Crabgrass: 0
//
Compound: COCOc1cc(-c2nn3c(c2Br)CCCC3)c(F)cc1Cl
Plant response rating, Crabgrass: 2
//
Compound: COCCN1C(=O)COc2cc(F)c(-c3nn4c(c3Cl)CCCC4)cc21
Plant response rating, Crabgrass: 6
//
Compound: CC(C)COc1cc(-c2nn3c(c2Cl)CCCC3)c(F)cc1Cl
Plant response rating, Crabgrass: 6
//
Compound: COc1cc(-c2nn3c(c2Cl)CCCC3)c(F)cc1Cl
Plant response rating, Crabgrass: 8

query: Record request: Plant response rating, Crabgrass value, item `Oc1cc(-c2nn3c(c2Br)CCCC3)c(F)cc1Cl`
result: 0

query: What Plant response rating, Crabgrass value was documented for this compound, `Clc1ccc(-c2nc3n(c2Cl)CCC=C3)c(Cl)c1` ?
result: 0

Hey, just so you know, these numbers are from patent US6358885B1.
